Recorded IC50, one value per entry.
- System: SARS-CoV-2 Everett strain
- Experiment summary: protection of Calu-3 cells from SARS-CoV-2 Everett strain-induced cytotoxicity (CellTiter Glo 2.0)
- Experimental parameters: Severe acute respiratory syndrome coronavirus 2, Calu-3, 96 h, read-out: IC50, protection of Calu-3 cells from SARS2-induced cytotoxicity
Recorded endpoint: IC50 (nM)

[[record]]
molecule = "C=C(C)[C@@H]1CCC(C)=C[C@H]1c1c(O)cc(CCCCC)cc1O [CBD, (−)-Cannabidiol]"
display_unit = "nM"
observed_value = 120

[[record]]
molecule = "C=C(C)[C@@H]1CCC(C)=C[C@H]1c1c(O)cc(CCC)cc1O [cannabidivarin, (−)-Cannabidivarin]"
display_unit = "nM"
observed_value = 43


* * *

- Tested on: SARS-CoV-2 Everett strain
- Experiment summary: protection of Calu-3 cells from SARS-CoV-2 Everett strain-induced cytotoxicity (CellTiter Glo 2.0)
- Experimental parameters: read-out: IC50, protection of Calu-3 cells from SARS2-induced cytotoxicity; Calu-3; 96 hours; MOI 0.5 to 2.0; three-fold dilutions from 10 μM
Recorded endpoint: IC50 (nM)

[[record]]
compound = "CCCCCc1cc(O)c(C/C=C(\\C)CCC=C(C)C)c(O)c1 [cannabigerol, Cannabigerol]"
recorded_endpoint = "IC50"
observed_value = 120

